The measured values listed here are drawn from patent US12358901B2.

- tgt: human Kv3.1 channels (hKv3.1) (Homo sapiens)
- measurementNotes: cell-based
- Type: cell-based
- protocolConditions: maximum response relative to reference compound (50 microM)
readoutName: Kv3.1 max R % (%)
Respond numerically; units are % and should not be typed.

CC1(C)NC(=O)N(c2cnc(Oc3cccc4c3C(C)(C)CO4)cn2)C1=O [Example 2]
149

Hi! What's the reported Kv3.1 max R % for CC[C@H]1NC(=O)N(c2cnc(Oc3ccc(C)c4c3C(C)(C)CO4)cn2)C1=O [Example 12] on human Kv3.1 channels (hKv3.1) (Homo sapiens)?
118

Hi! What's the reported Kv3.1 max R % for CC[C@@]1(C)NC(=O)N(c2cnc(Oc3ccc(C)c4c3C3(CC3)CO4)cn2)C1=O [Example 5] on human Kv3.1 channels (hKv3.1) (Homo sapiens)?
149

Hi! What's the reported Kv3.1 max R % for Cc1ccc(Oc2cnc(N3C(=O)NC4(CC4)C3=O)cn2)c2c1OCC21CC1 [Example 14] on human Kv3.1 channels (hKv3.1) (Homo sapiens)?
145

Hi! What's the reported Kv3.1 max R % for CC[C@@]1(C)NC(=O)N(c2cnc(Oc3cccc4c3C(C)(C)CO4)cn2)C1=O [Example 6] on human Kv3.1 channels (hKv3.1) (Homo sapiens)?
165

Hi! What's the reported Kv3.1 max R % for Cc1ccc(Oc2ccc(N3C(=O)NC(C)(C)C3=O)nc2)c2c1OCC21CC1 [RE7, reference compound] on human Kv3.1 channels (hKv3.1) (Homo sapiens)?
130

Hi! What's the reported Kv3.1 max R % for Cc1ccc(Oc2cnc(N3C(=O)NC4(CCC4)C3=O)cn2)c2c1OCC21CC1 [Example 13] on human Kv3.1 channels (hKv3.1) (Homo sapiens)?
165

Hi! What's the reported Kv3.1 max R % for Cc1ccc(Oc2ncc(N3C(=O)NC(C)(C)C3=O)cn2)c2c1OCC21CC1 [RE5, reference compound] on human Kv3.1 channels (hKv3.1) (Homo sapiens)?
158

Hi! What's the reported Kv3.1 max R % for Cc1ccc(Oc2ncc(N3C(=O)NC(C)(C)C3=O)cn2)cc1OC(F)(F)F [RE1, reference compound] on human Kv3.1 channels (hKv3.1) (Homo sapiens)?
105

Hi! What's the reported Kv3.1 max R % for Cc1ccc(Oc2cncc(N3C(=O)NC(C)(C)C3=O)n2)c2c1OCC21CC1 [RE10, reference compound] on human Kv3.1 channels (hKv3.1) (Homo sapiens)?
22

Hi! What's the reported Kv3.1 max R % for CC[C@H]1NC(=O)N(c2cnc(Oc3cccc4c3C(C)(C)CO4)cn2)C1=O [Example 11] on human Kv3.1 channels (hKv3.1) (Homo sapiens)?
165

Hi! What's the reported Kv3.1 max R % for Cc1ccc(Oc2cnc(N3C(=O)NC(C)(C)C3=O)cn2)c2c1OCC21CC1 [Example 1] on human Kv3.1 channels (hKv3.1) (Homo sapiens)?
164

Hi! What's the reported Kv3.1 max R % for CC[C@@]1(C)NC(=O)N(c2cnc(Oc3cccc4c3C3(CC3)CO4)cn2)C1=O [Example 3] on human Kv3.1 channels (hKv3.1) (Homo sapiens)?
205

Hi! What's the reported Kv3.1 max R % for CC[C@H]1NC(=O)N(c2ccc(Oc3cccc4c3C3(CC3)CO4)nc2)C1=O [RE13, reference compound] on human Kv3.1 channels (hKv3.1) (Homo sapiens)?
149

----------
Readings of fraction unbound at 5 h, 5 micromolar for the listed compounds
- measurementNotes: Determination of brain tissue binding (equilibrium dialysis)
- Format: in vitro ADME
- protocolConditions: Sprague Dawley, rat whole brain homogenate, 5 h at 37° C.
Lab note: write the figure by itself, no unit.

Would you please look over these solved cases?
CC[C@H]1NC(=O)N(c2ccc(Oc3cccc4c3C3(CC3)CO4)cn2)C1=O [RE14, reference compound]
0.058
Cc1ccc(Oc2ccc(N3C(=O)NC(C)(C)C3=O)nc2)c2c1OCC21CC1 [RE7, reference compound]
0.023
Cc1ccc(Oc2ncc(N3C(=O)NC(C)(C)C3=O)cn2)c2c1OCC21CC1 [RE5, reference compound]
0.051
CC[C@H]1NC(=O)N(c2cnc(Oc3ccc(C)c4c3C3(CC3)CO4)cn2)C1=O
0.03
CC[C@H]1NC(=O)N(c2cnc(Oc3cccc4c3C3(CC3)CO4)cn2)C1=O
0.087
CC[C@H]1NC(=O)N(c2ccc(Oc3ccc(C)c4c3C3(CC3)CO4)cn2)C1=O [RE12, reference compound]
0.019
CC[C@H]1NC(=O)N(c2ccc(Oc3cccc4c3C3(CC3)CO4)nc2)C1=O [RE13, reference compound]
0.062
Cc1ccc(Oc2cnc(N3C(=O)NC(C)(C)C3=O)cn2)c2c1OCC21CC1
0.043
CC[C@H]1NC(=O)N(c2ccc(Oc3ccc(C)c4c3C3(CC3)CO4)nc2)C1=O [RE11, reference compound]
0.021

Turning to the following compound.
// query fraction unbound at 5 h, 5 micromolar value for entry Cc1ccc(Oc2ccc(N3C(=O)NC(C)(C)C3=O)cn2)c2c1OCC21CC1 [RE6, reference compound]
0.028

----------
Readings of Kv3.1 max R % for the listed compounds
- tgt: human Kv3.1 channels (hKv3.1) (Homo sapiens)
- measurementNotes: cell-based
- Type: cell-based
- protocolConditions: maximum response relative to reference compound (50 microM)
Respond numerically; units are % and should not be typed.

Would you please look over these solved cases?
Cc1ccc(Oc2cnc(N3C(=O)NC(C)(C)C3=O)cn2)c2c1OCC2(C)C [Example 7]
134
Cc1ccc(Oc2cnc(N3C(=O)NC(C)(C)C3=O)cn2)cc1OC(F)(F)F [RE4, reference compound]
24
Cc1ccc(Oc2ccc(N3C(=O)NC(C)(C)C3=O)cn2)c2c1OCC21CC1 [RE6, reference compound]
144
CC[C@H]1NC(=O)N(c2ccc(Oc3cccc4c3C3(CC3)CO4)cn2)C1=O [RE14, reference compound]
150
Cc1ccc(Oc2ccc(N3C(=O)NC(C)(C)C3=O)nn2)c2c1OCC21CC1 [RE9, reference compound]
16

// query Kv3.1 max R % value for entry CC1(C)NC(=O)N(c2cnc(Oc3cccc4c3C3(CC3)CO4)cn2)C1=O [Example 4]
170

// query Kv3.1 max R % value for entry CC[C@H]1NC(=O)N(c2ccc(Oc3ccc(C)c4c3C3(CC3)CO4)cn2)C1=O [RE12, reference compound]
149

// query Kv3.1 max R % value for entry Cc1ccc(Oc2cnc(N3C(=O)NC(C)(C)C3=O)nc2)c2c1OCC21CC1 [RE8, reference compound]
42

----------
- measurementNotes: In vitro metabolic stability study in human hepatocytes
- Format: in vitro ADME
- protocolConditions: 0.5 uM, human cryopreserved hepatocytes, 37° C., up to 180 min
With a cut-off of 0.003 min⁻¹, any Rate constant k strictly below it is called met; any Rate constant k meeting it or above is called not met.

// known answers, use as guide
Cc1ccc(Oc2ncc(N3C(=O)NC(C)(C)C3=O)cn2)c2c1OCC21CC1 [RE5, reference compound]
met
CC[C@H]1NC(=O)N(c2ccc(Oc3ccc(C)c4c3C3(CC3)CO4)nc2)C1=O [RE11, reference compound]
not met
CC[C@H]1NC(=O)N(c2cnc(Oc3ccc(C)c4c3C3(CC3)CO4)cn2)C1=O
not met

// switching to the query compound
Criterion: Rate constant k strictly below 0.003 min⁻¹. Is it met by CC[C@H]1NC(=O)N(c2ccc(Oc3cccc4c3C3(CC3)CO4)nc2)C1=O [RE13, reference compound] ?
not met

----------
- measurementNotes: In vitro metabolic stability study in human hepatocytes
- Assay type: in vitro ADME
- protocolConditions: 0.5 uM, human cryopreserved hepatocytes, 37° C.
readoutName: In vitro CLint (mL/min/g liver)
Respond numerically; units are mL/min/g liver and should not be typed.

Would you please look over these solved cases?
Cc1ccc(Oc2ncc(N3C(=O)NC(C)(C)C3=O)cn2)c2c1OCC21CC1 [RE5, reference compound]
0.31
CC[C@H]1NC(=O)N(c2cnc(Oc3cccc4c3C3(CC3)CO4)cn2)C1=O
0.70
CC[C@H]1NC(=O)N(c2ccc(Oc3ccc(C)c4c3C3(CC3)CO4)nc2)C1=O [RE11, reference compound]
3.58
CC[C@H]1NC(=O)N(c2cnc(Oc3ccc(C)c4c3C3(CC3)CO4)cn2)C1=O
1.03

Turning to the following molecule.
// query In vitro CLint value for entry CC[C@H]1NC(=O)N(c2ccc(Oc3cccc4c3C3(CC3)CO4)nc2)C1=O [RE13, reference compound]
2.16

----------
- tgt: human Kv3.1 channels (hKv3.1) (Homo sapiens, UniProt P48547)
- measurementNotes: cell-based
- Type: cell-based
- protocolConditions: HEK-hKv3.1 cells, -15 mV voltage step, normalised to 50 microM reference compound
With a cut-off of 5, any Kv3.1 pEC50 strictly below it is called Yes; any Kv3.1 pEC50 meeting it or above is called No.

// known answers, use as guide
Cc1ccc(Oc2ccc(N3C(=O)NC(C)(C)C3=O)nn2)c2c1OCC21CC1 [RE9, reference compound]
Yes
Cc1ccc(Oc2cncc(N3C(=O)NC(C)(C)C3=O)n2)c2c1OCC21CC1 [RE10, reference compound]
Yes
Cc1ccc(Oc2cnc(N3C(=O)NC(C)(C)C3=O)cn2)c2c1OCC21CC1
No
CC[C@H]1NC(=O)N(c2ccc(Oc3ccc(C)c4c3C3(CC3)CO4)nc2)C1=O [RE11, reference compound]
No
CC[C@@]1(C)NC(=O)N(c2cnc(Oc3ccc(C)c4c3C3(CC3)CO4)cn2)C1=O
No
Cc1ccc(Oc2cnc(N3C(=O)NC(C)(C)C3=O)cn2)cc1OC(F)(F)F [RE4, reference compound]
Yes
Cc1ccc(Oc2ncc(N3C(=O)NC(C)(C)C3=O)cn2)cc1OC(F)(F)F [RE1, reference compound]
Yes

// switching to the query molecule
Criterion: Kv3.1 pEC50 strictly below 5. Is it met by `CC[C@@]1(C)NC(=O)N(c2cnc(Oc3cccc4c3C3(CC3)CO4)cn2)C1=O` ?
No
